# System: tetA promoter (PtetA)-lacZ reporter in E. coli KM3
# Format: cell-based
# experimental setup: Table 4; nicosulfuron 20 μg/ml (20 ppm); 48 hrs at 30° C.
metric: relative β-galactosidase activity, inducer Ns
Answers are plain numbers.

Lab note: measured relative β-galactosidase activity, inducer Ns of L1-20: library L1 hit, sulfonylurea-responsive TetR(B) variant, SEQ ID NO: 6 (protein, Sulfonylurea responsive repressor L1-20) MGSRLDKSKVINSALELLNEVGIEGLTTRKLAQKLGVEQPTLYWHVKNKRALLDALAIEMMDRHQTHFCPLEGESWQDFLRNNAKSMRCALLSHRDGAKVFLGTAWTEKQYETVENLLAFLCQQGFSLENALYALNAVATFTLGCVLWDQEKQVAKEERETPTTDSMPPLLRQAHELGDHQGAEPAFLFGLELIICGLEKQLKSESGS was 1.6

Lab note: measured relative β-galactosidase activity, inducer Ns of L1-28: library L1 hit, sulfonylurea-responsive TetR(B) variant (protein, Sulfonylurea responsive repressor L1-28) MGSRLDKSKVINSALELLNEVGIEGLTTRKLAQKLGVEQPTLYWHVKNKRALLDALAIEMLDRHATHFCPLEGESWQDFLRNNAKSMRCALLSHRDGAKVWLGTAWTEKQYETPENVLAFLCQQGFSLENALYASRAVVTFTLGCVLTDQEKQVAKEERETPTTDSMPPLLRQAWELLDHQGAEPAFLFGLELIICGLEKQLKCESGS was 0.1

Lab note: measured relative β-galactosidase activity, inducer Ns of L1-31: library L1 hit, sulfonylurea-responsive TetR(B) variant (protein, Sulfonylurea responsive repressor L1-31) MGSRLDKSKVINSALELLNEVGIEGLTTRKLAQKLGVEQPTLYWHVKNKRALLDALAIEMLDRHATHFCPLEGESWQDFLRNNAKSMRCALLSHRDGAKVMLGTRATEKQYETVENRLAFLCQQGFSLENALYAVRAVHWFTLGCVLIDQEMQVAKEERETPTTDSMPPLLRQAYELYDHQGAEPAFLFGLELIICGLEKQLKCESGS was 0.5

Lab note: measured relative β-galactosidase activity, inducer Ns of L1-44: library L1 hit, sulfonylurea-responsive TetR(B) variant, SEQ ID NO: 13 (protein, Sulfonylurea responsive repressor L1-44) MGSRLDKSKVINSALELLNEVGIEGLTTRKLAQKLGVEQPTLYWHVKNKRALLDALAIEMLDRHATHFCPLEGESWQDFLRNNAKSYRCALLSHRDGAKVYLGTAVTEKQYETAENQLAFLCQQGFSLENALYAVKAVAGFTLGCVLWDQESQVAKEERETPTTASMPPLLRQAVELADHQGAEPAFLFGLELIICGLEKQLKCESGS was 0.4

Lab note: measured relative β-galactosidase activity, inducer Ns of L1-24: library L1 hit, sulfonylurea-responsive TetR(B) variant (protein, Sulfonylurea responsive repressor L1-24) MGSRLDKSKVINSALELLNEVGIEGLTTRKLAQKLGVEQPTLYWHVKNKRALLDALAIEMLDRHNTHFCPLEGESWQDFLRNSAKSMRCALLSHRDGAKVLLGTAVTEKQYETTENSLAFLCQQGFSLENALYAIRAVRTFTLGCVLVDQERQVAKEERETPTTDSMPPLLRQAKELLDHQGAEPAFLFGLELIICGLEKQLKCESGS was 0.3

I'm hoping you can list relative β-galactosidase activity, inducer Ns for every molecule here, please.
1. L1-7: library L1 hit, sulfonylurea-responsive TetR(B) variant, SEQ ID NO: 4 (protein, Sulfonylurea responsive repressor L1-07) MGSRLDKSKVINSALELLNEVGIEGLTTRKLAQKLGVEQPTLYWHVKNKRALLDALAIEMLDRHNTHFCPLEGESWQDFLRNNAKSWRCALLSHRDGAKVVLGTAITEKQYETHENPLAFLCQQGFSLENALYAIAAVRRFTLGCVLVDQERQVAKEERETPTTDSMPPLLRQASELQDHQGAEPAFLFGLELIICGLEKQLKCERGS
2. L1-29: library L1 hit, sulfonylurea-responsive TetR(B) variant, SEQ ID NO: 10 (protein, Sulfonylurea responsive repressor L1-29) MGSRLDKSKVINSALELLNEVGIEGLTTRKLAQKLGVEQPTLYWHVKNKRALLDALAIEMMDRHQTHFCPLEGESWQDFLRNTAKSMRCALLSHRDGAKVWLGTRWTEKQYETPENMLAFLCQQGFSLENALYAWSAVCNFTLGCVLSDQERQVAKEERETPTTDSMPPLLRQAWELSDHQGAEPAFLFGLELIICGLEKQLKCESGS
3. L1-38: library L1 hit, sulfonylurea-responsive TetR(B) variant (protein, Sulfonylurea responsive repressor L1-38) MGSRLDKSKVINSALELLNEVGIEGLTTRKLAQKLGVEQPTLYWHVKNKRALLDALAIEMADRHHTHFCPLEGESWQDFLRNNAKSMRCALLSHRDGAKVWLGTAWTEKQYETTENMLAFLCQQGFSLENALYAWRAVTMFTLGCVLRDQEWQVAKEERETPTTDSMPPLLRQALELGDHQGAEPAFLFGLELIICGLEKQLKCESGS

1: 0.1; 2: 0.1; 3: 8.7

// data source = patent US8580556B2
